experiment: Effect of food on plasma pharmacokinetics after single oral dose of SF2a/b (Example 2); assay type: in vivo, human; details: both sexes, human, plasma, oral, 50 mg, Treatment H: single 50 mg (SF2a), fasted; read-out: t1/2, term, Geo. Mean (converted)
MEASURED PARAMETER: half-life (h)

INSERT INTO assay_data (compound, reading_unit, recorded_result) VALUES
  ('COc1cc(NC(C(=O)c2c[nH]c3ccc(OC(F)(F)F)cc23)c2ccc(Cl)cc2OC)cc(S(C)(=O)=O)c1 (stereo not shown)', 'h', 167);

---

assay: Effect of food on plasma pharmacokinetics after single oral dose of SF2a/b (Example 2); assay type: in vivo, human; conditions: both sexes, human, plasma, oral, 800 mg, Treatment D: single 800 mg (SF2b), fasted; read-out: AUC∞, Mean
MEASURED PARAMETER: AUC(0-inf) (µg·h/mL)

INSERT INTO assay_data (molecule, measured_parameter, recorded_result) VALUES
  ('COc1cc(NC(C(=O)c2c[nH]c3ccc(OC(F)(F)F)cc23)c2ccc(Cl)cc2OC)cc(S(C)(=O)=O)c1 (stereo not shown)', 'AUC(0-inf)', 160);

---

experiment: Effect of food on plasma pharmacokinetics after single oral dose of SF2a/b (Example 2); format: in vivo, human; details: both sexes, human, plasma, oral, 50 mg, Treatment I: single 50 mg (SF2a), fed, standardized breakfast; read-out: Cmax, Geo. Mean
MEASURED PARAMETER: Cmax (ng/mL)

INSERT INTO results (compound, measured_parameter, reading_unit, recorded_result) VALUES
  ('COc1cc(NC(C(=O)c2c[nH]c3ccc(OC(F)(F)F)cc23)c2ccc(Cl)cc2OC)cc(S(C)(=O)=O)c1 (stereo not shown)', 'Cmax', 'ng/mL', 257);

---

assay: Plasma pharmacokinetics with loading dose and weekly or twice weekly maintenance dosing, fed (Example 5); assay type: in vivo, human; details: human, plasma, oral, 150 mg, Panel III (150 mg BID Days 1-2, then 300 mg Q7D; SF2a/b, fed), Day 2; read-out: Mean Cmax (SD)
MEASURED PARAMETER: Cmax (ng/mL)

INSERT INTO results (compound, recorded_result) VALUES
  ('COc1cc(NC(C(=O)c2c[nH]c3ccc(OC(F)(F)F)cc23)c2ccc(Cl)cc2OC)cc(S(C)(=O)=O)c1 (stereo not shown)', 1810);

---

test: Plasma pharmacokinetics with loading dose and weekly or twice weekly maintenance dosing, fed (Example 5); format: in vivo, human; conditions: human, plasma, oral, 450 mg, Panel II (450 mg BID Days 1-2, then 450 mg Q3D/Q4D; SF2a/b, fed), Day 3; read-out: Mean Cmax (SD)
MEASURED PARAMETER: Cmax

INSERT INTO results (compound, recorded_result) VALUES
  ('COc1cc(NC(C(=O)c2c[nH]c3ccc(OC(F)(F)F)cc23)c2ccc(Cl)cc2OC)cc(S(C)(=O)=O)c1 (stereo not shown)', '5950 ng/mL');

---

assay: Plasma pharmacokinetics with loading dose and weekly or twice weekly maintenance dosing, fed (Example 5); assay type: in vivo, human; details: human, plasma, oral, 150 mg, Panel III (150 mg BID Days 1-2, then 300 mg Q7D; SF2a/b, fed), Day 1; read-out: Median tmax (min-max)
MEASURED PARAMETER: Tmax (h)

INSERT INTO assay_data (compound, measured_parameter, recorded_result) VALUES
  ('COc1cc(NC(C(=O)c2c[nH]c3ccc(OC(F)(F)F)cc23)c2ccc(Cl)cc2OC)cc(S(C)(=O)=O)c1 (stereo not shown)', 'Tmax', 5);
